Source listed as the supplement of paper PMC7877785.

EXPERIMENT NOTES: self-splicing fitness, log relative to wild type (ln ratio); higher = more splicing; Tetrahymena group I intron in knt gene, E. coli kanamycin selection, DiMSum; sequences stand for … in CUCUCU…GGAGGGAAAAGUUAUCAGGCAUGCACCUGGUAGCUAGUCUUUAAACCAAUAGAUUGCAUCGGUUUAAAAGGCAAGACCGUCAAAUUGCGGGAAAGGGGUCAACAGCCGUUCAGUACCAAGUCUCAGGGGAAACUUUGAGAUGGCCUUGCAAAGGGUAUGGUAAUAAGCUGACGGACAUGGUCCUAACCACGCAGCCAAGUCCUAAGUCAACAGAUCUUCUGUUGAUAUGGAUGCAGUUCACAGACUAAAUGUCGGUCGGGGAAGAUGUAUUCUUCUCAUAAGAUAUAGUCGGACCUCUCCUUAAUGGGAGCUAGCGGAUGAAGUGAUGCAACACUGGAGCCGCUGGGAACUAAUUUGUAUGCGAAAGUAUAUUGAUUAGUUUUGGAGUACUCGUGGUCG;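 further: selection with 25 µg/mL kanamycin versus none on LB agar overnight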
CONDITION SUMMARY: 37 °C
Tick t if self-splicing fitness (ln) is -0.7 or greater. Tick f if self-splicing fitness (ln) is less than -0.7.

| RESIDUES | ANSWER LABEL |
| --- | --- |
| ACGCAGCAAUAUUACGGUUG | f |
| GAUGAGCAAUAUUACGUCGU | f |
| GCGAAGCAAUAUUACGCGCU | f |
| CGAAAGCAAUAUUACGACGU | t |
| GUGAAGCAAUAUUACGGCGU | t |
| UUCCAGCAAUAUUACGUCAG | f |
| UAUAAGCAAUAUUACGAAUC | f |
| GCCAAGCAAUAUUACGUCCC | t |
| AUGGAGCAAUAUUACGCGCA | f |
| CAGUAGCAAUAUUACGGUGG | t |
| CUCCAGCAAUAUUACGGUAA | f |
| GACUAGCAAUAUUACGUACU | t |
| UGUUAGCAAUAUUACGAUCA | t |
| CACGAGCAAUAUUACGGGGG | f |
| UAAUAGCAAUAUUACGCCUG | t |
| GAGGAGCAAUAUUACGUACC | t |

###

EXPERIMENT NOTES: self-splicing fitness, log relative to wild type (ln ratio); higher = more splicing; Tetrahymena group I intron in knt gene, E. coli kanamycin selection, DiMSum; sequences stand for … in CUCUCU…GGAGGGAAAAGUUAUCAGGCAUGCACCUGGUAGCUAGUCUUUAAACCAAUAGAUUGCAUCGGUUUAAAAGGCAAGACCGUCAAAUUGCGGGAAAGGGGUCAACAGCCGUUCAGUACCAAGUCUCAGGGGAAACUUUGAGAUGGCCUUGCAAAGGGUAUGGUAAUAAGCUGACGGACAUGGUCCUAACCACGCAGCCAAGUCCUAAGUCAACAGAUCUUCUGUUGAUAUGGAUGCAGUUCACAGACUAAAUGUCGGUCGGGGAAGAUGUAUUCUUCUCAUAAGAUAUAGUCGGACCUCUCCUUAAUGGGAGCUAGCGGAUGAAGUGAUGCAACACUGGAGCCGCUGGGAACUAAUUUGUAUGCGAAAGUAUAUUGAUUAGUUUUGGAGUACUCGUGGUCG
CONDITION SUMMARY: 37 °C
Tick yes if self-splicing fitness (ln) is -2 or greater. Tick no if self-splicing fitness (ln) is less than -2.

| RESIDUES | ANSWER LABEL |
| --- | --- |
| AUUAAGCAAUAUUACGGCCG | yes |
| AAACAGCAAUAUUACGCGAU | no |
| UACGAGCAAUAUUACGCUAG | yes |
| GGGGAGCAAUAUUACGUAGU | yes |
| GUUGAGCAAUAUUACGACAA | no |
| CCUAAGCAAUAUUACGGAAU | no |
| ACUCAGCAAUAUUACGUAGU | yes |
| GCACAGCAAUAUUACGAUGC | yes |
